# credit: patent US20160279108A1

- experiment_description: Tissue distribution in tumor-bearing mice
- Assay type: in vivo, BALB/c mice
- details: female, BALB/c, mouse, lungs, intraperitoneal, 10 mg/kg
quantity: concentration at 12 h

Input line: Supply measured concentration at 12 h of "CO[C@H]1C[C@@H]2CC[C@@H](C)[C@@](O)(O2)C(=O)C(=O)N2CCCC[C@H]2C(=O)O[C@H]([C@H](C)C[C@@H]2CC[C@@H](O)[C@H](OC)C2)CC(=O)[C@H](C)/C=C(\C)[C@@H](O)[C@@H](OC)C(=O)[C@H](C)C[C@H](C)/C=C/C=C/C=C/1C" in your reply.
Output line: 618 ng/g

---

- experiment_description: Tissue distribution in tumor-bearing mice
- Format: in vivo, BALB/c mice
- details: female, BALB/c, mouse, spleen, intraperitoneal, 10 mg/kg
quantity: concentration at 12 h
Please make sure the unit comes right after the number.

Input line: Supply measured concentration at 12 h of "CO[C@H]1C[C@@H]2CC[C@@H](C)[C@@](O)(O2)C(=O)C(=O)N2CCCC[C@H]2C(=O)O[C@H]([C@H](C)C[C@@H]2CC[C@@H](O)[C@H](OC)C2)CC(=O)[C@H](C)/C=C(\C)[C@@H](O)[C@@H](OC)C(=O)[C@H](C)C[C@H](C)/C=C/C=C/C=C/1C" in your reply.
Output line: 183 ng/g

---

- experiment_description: Pharmacokinetics study in rats
- Format: in vivo, Sprague-Dawley rats
- details: female, Sprague-Dawley, rat, plasma, ip, 10 mg/kg
quantity: Cmax (ng/mL)
Express the result in ng/mL but write the number alone.

Input line: Supply measured Cmax of "CO[C@H]1C[C@@H]2CC[C@@H](C)[C@@](O)(O2)C(=O)C(=O)N2CCCC[C@H]2C(=O)O[C@H]([C@H](C)C[C@@H]2CC[C@@H](O)[C@H](OC)C2)CC(=O)[C@H](C)/C=C(\C)[C@@H](O)[C@@H](OC)C(=O)[C@H](C)C[C@H](C)/C=C/C=C/C=C/1C" in your reply.
Output line: 173

---

- experiment_description: Tissue distribution in tumor-bearing mice
- Assay type: in vivo, BALB/c mice
- details: female, BALB/c, mouse, brain, intraperitoneal, 10 mg/kg
quantity: concentration at 12 h
Please make sure the unit comes right after the number.

Input line: Supply measured concentration at 12 h of "CO[C@H]1C[C@@H]2CC[C@@H](C)[C@@](O)(O2)C(=O)C(=O)N2CCCC[C@H]2C(=O)O[C@H]([C@H](C)C[C@@H]2CC[C@@H](O)[C@H](OC)C2)CC(=O)[C@H](C)/C=C(\C)[C@@H](O)[C@@H](OC)C(=O)[C@H](C)C[C@H](C)/C=C/C=C/C=C/1C" in your reply.
Output line: 108 ng/g

---

- experiment_description: Pharmacokinetics study in rats
- Assay type: in vivo, Sprague-Dawley rats
- details: female, Sprague-Dawley, rat, plasma, ip, 10 mg/kg
quantity: AUC(0-inf) (ng·h/mL)
Express the result in ng·h/mL but write the number alone.

Input line: Supply measured AUC(0-inf) of "CO[C@H]1C[C@@H]2CC[C@@H](C)[C@@](O)(O2)C(=O)C(=O)N2CCCC[C@H]2C(=O)O[C@H]([C@H](C)C[C@@H]2CC[C@@H](O)[C@H](OC)C2)CC(=O)[C@H](C)/C=C(\C)[C@@H](O)[C@@H](OC)C(=O)[C@H](C)C[C@H](C)/C=C/C=C/C=C/1C" in your reply.
Output line: 2360

---

- experiment_description: Tissue distribution in tumor-bearing mice
- Type: in vivo, BALB/c mice
- details: female, BALB/c, mouse, muscle, intraperitoneal, 10 mg/kg
quantity: concentration at 12 h

Input line: Supply measured concentration at 12 h of CO[C@H]1C[C@@H]2CC[C@@H](C)[C@@](O)(O2)C(=O)C(=O)N2CCCC[C@H]2C(=O)O[C@H]([C@H](C)C[C@@H]2CC[C@@H](O)[C@H](OC)C2)CC(=O)[C@H](C)/C=C(\C)[C@@H](O)[C@@H](OC)C(=O)[C@H](C)C[C@H](C)/C=C/C=C/C=C/1C [rapamycin] in your reply.
Output line: 316 ng/g

---

- experiment_description: Tissue distribution in tumor-bearing mice
- Assay type: in vivo, BALB/c mice
- details: female, BALB/c, mouse, heart, intraperitoneal, 10 mg/kg
quantity: concentration at 12 h (ng/g)
Express the result in ng/g but write the number alone.

Input line: Supply measured concentration at 12 h of "CO[C@H]1C[C@@H]2CC[C@@H](C)[C@@](O)(O2)C(=O)C(=O)N2CCCC[C@H]2C(=O)O[C@H]([C@H](C)C[C@@H]2CC[C@@H](O)[C@H](OC)C2)CC(=O)[C@H](C)/C=C(\C)[C@@H](O)[C@@H](OC)C(=O)[C@H](C)C[C@H](C)/C=C/C=C/C=C/1C" in your reply.
Output line: 441

---

- experiment_description: Tissue distribution in tumor-bearing mice
- Format: in vivo, BALB/c mice
- details: mice, 12 h post 10 mg/kg equivalent rapamycin, i.p. (free rapamycin), s.c. (HA-L-Rapa), Mean ± SD, n=5
quantity: Mean concentration of rapamycin in Tumor
Please make sure the unit comes right after the number.

Input line: Supply measured Mean concentration of rapamycin in Tumor of "CO[C@H]1C[C@@H]2CC[C@@H](C)[C@@](O)(O2)C(=O)C(=O)N2CCCC[C@H]2C(=O)O[C@H]([C@H](C)C[C@@H]2CC[C@@H](O)[C@H](OC)C2)CC(=O)[C@H](C)/C=C(\C)[C@@H](O)[C@@H](OC)C(=O)[C@H](C)C[C@H](C)/C=C/C=C/C=C/1C" in your reply.
Output line: 1240 ng/g

---

- experiment_description: Tissue distribution in tumor-bearing mice
- Assay type: in vivo, BALB/c mice
- details: female, BALB/c, mouse, liver, intraperitoneal, 10 mg/kg
quantity: concentration at 12 h (ng/g)
Express the result in ng/g but write the number alone.

Input line: Supply measured concentration at 12 h of "CO[C@H]1C[C@@H]2CC[C@@H](C)[C@@](O)(O2)C(=O)C(=O)N2CCCC[C@H]2C(=O)O[C@H]([C@H](C)C[C@@H]2CC[C@@H](O)[C@H](OC)C2)CC(=O)[C@H](C)/C=C(\C)[C@@H](O)[C@@H](OC)C(=O)[C@H](C)C[C@H](C)/C=C/C=C/C=C/1C" in your reply.
Output line: 379
